These measurements were taken from patent US20080085884A1.

Here the recorded Ki is given for each entry.
# subject of test: human MCHR1 (Homo sapiens, UniProt Q99705)
# Construct: host or cells: CHO
# Sequence (Q99705 whole entry): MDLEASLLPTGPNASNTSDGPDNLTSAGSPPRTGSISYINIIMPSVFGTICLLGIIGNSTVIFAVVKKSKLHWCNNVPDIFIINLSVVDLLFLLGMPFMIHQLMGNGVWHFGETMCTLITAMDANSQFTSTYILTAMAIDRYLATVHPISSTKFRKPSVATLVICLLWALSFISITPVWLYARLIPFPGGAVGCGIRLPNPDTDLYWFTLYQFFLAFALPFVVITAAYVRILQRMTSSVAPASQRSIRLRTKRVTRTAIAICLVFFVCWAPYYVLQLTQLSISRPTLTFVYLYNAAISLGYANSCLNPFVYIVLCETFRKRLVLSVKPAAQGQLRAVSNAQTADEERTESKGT
# procedure details: Cyclic AMP assay (MCHR-1 functional antagonism)
# Assay type: cell-based
# test parameters: CHO cells stably expressing human MCHR1; cAMP accumulation with 25 uM forskolin and 0.2 nM MCH, 90 min; Ki from IC50 by Cheng-Prusoff; read-out: MCHR-1 functional Ki
# Protocol: CHO cell lines stably expressing the human MCHR1 (Euroscreen, Brussels, Belgium) were maintained in DMEM containing Glutamax (Invitrogen, Carlsbad, Calif.), 10% FBS, 400 ug/ml Geneticin. Cyclic AMP assays. […] Cells were incubated at 37° C./5% CO2 for 90 minutes and cAMP accumulation subsequently determined by DiscoveRx Hithunter c-AMP II Assay kit (GE Healthcare, Buckinghamshire, UK) in accordance with manufactures instructions. […]
measurement name: Ki (nM)

[[record]]
compound = "CCOC(=O)N[C@H]1CCN(c2ccc(-n3ccc(OCc4ccccc4)cc3=O)cn2)C1 [Example 176]"
subject_of_test = "human MCHR1 (Homo sapiens, UniProt Q99705)"
assay_value = 29.9

[[record]]
compound = "O=c1cc(OCc2ccc(F)cc2)ccn1-c1ccc(N2CC(N3CCCC3)C2)nc1 [Example 95]"
subject_of_test = "human MCHR1 (Homo sapiens, UniProt Q99705)"
assay_value = 147

[[record]]
compound = "O=c1cc(OCc2ccccc2)ccn1-c1ccc(N2CC(N3CCCC3)C2)nc1 [Example 78]"
subject_of_test = "human MCHR1 (Homo sapiens, UniProt Q99705)"
assay_value = 155

[[record]]
compound = "CCC(=O)N1CCN(c2ccc(-n3ccc(OCc4ccc(F)cc4)cc3=O)cn2)CC1 [Example 168]"
subject_of_test = "human MCHR1 (Homo sapiens, UniProt Q99705)"
assay_value = 539

[[record]]
compound = "COC(=O)NC1CN(c2ccc(-n3ccc(OCc4ccc(F)cc4)cc3=O)cn2)C1 [Example 193]"
subject_of_test = "human MCHR1 (Homo sapiens, UniProt Q99705)"
assay_value = 196

[[record]]
compound = "CC(C)C1(O)CCN(c2ccc(-n3ccc(OCc4ccccc4)cc3=O)cn2)C1 (stereo not drawn) [Example 45]"
subject_of_test = "human MCHR1 (Homo sapiens, UniProt Q99705)"
assay_value = 270

[[record]]
compound = "CC1(O)CCN(c2ccc(-n3ccc(OCc4ccccc4)cc3=O)cn2)CC1 [Example 44]"
subject_of_test = "human MCHR1 (Homo sapiens, UniProt Q99705)"
assay_value = 113

[[record]]
compound = "O=c1cc(OCc2ccccc2)ccn1-c1ccc(N2CCNCC2)nc1 [Example 2]"
subject_of_test = "human MCHR1 (Homo sapiens, UniProt Q99705)"
assay_value = 89.9

[[record]]
compound = "CCC(=O)N[C@@H]1CCN(c2ccc(-n3ccc(OCc4ccccc4)cc3=O)cn2)C1 [Example 196]"
subject_of_test = "human MCHR1 (Homo sapiens, UniProt Q99705)"
assay_value = 605

